# Test system: PsPIWI-RE (Pseudomonas stutzeri DSM 4166)
# MEASUREMENT PROTOCOL: fluorescence polarization
# CONDITION PARAMETERS: FP: 20 mM Tris-HCl pH 7.5, 250 mM NaCl, 5 mM MgCl2, 5 nM oligo, 37 C, 30 min; EMSA: 20 mM Tris-HCl pH 8.0, 150 mM NaCl, 2 mM DTT, 5 mM MgCl2, 1 uM oligo, 1-3 uM
QUANTITY MEASURED: Kd
Remember to put the unit after the number in your answer.

Worked examples, 4 sequences total:
INSERT INTO measurements (biosequence, recorded_value) VALUES
  ('GGAGGUAGUAGGUUGUAUAGU [5''OH-RNA (5''G) 21-nt guide]', '86.7 nM'),
  ('UGAGGUAGUAGGUUGUAUAGU [5''OH-RNA (5''U) 21-nt guide]', '86.5 nM'),
  ('CGAGGUAGUAGGUUGUAUAGU [5''OH-RNA (5''C) 21-nt guide]', '152 nM'),
  ('TGAGGTAGTAGGTTGTATAGT [5''OH-DNA (5''T) 21-nt guide]', '19.7 nM');

Turning now to a further sequence:
The sequence AGAGGUAGUAGGUUGUAUAGU [5'OH-RNA (5'A) 21-nt guide] , tested on PsPIWI-RE (Pseudomonas stutzeri DSM 4166), showed Kd of 88.4 nM

Hello, the source for this data is paper PMC10991935, in case you need it.
